- System: Escherichia coli
- PROTOCOL_NOTES: minimum inhibitory concentration (MIC)
- RECORDED_CONDITIONS: isolate (source animal id): 132
minimum inhibitory concentration reference

molecule="CCC[C@@H]1C[C@@H](C(=O)N[C@@H]([C@H]2O[C@H](SC)[C@H](O)[C@@H](O)[C@H]2O)[C@H](C)Cl)N(C)C1 [Clindamycin]" assay_result="> 16 µg/mL"
molecule="NC[C@@H]1O[C@H](O[C@H]2[C@@H](O)[C@H](O[C@@H]3[C@@H](O)[C@H](N)C[C@H](N)[C@H]3O[C@H]3O[C@H](CN)[C@@H](O)[C@H](O)[C@H]3N)O[C@@H]2CO)[C@H](N)[C@@H](O)[C@@H]1O [Neomycin]" assay_result="> 32 µg/mL"
molecule="CC[C@H]1OC(=O)C[C@@H](O)[C@H](C)[C@@H](O[C@@H]2O[C@H](C)[C@@H](O)[C@H](N(C)C)[C@H]2O)[C@@H](CCN2CCCCC2)C[C@@H](C)C(=O)/C=C/C(C)=C/[C@@H]1CN1CCCCC1 [Tildipirosin]" assay_result="4 µg/mL"
molecule="CS(=O)(=O)c1ccc([C@@H](O)[C@@H](CF)NC(=O)C(Cl)Cl)cc1 [Florfenicol]" assay_result="> 8 µg/mL"
molecule="CN1C[C@@H]2C[C@H]1CN2c1cc2c(cc1F)c(=O)c(C(=O)O)cn2C1CC1 [Danofloxacin]" assay_result="0.5 µg/mL"
molecule="COc1cc(Cc2cnc(N)nc2N)cc(OC)c1OC.Cc1cc(NS(=O)(=O)c2ccc(N)cc2)no1 [trimethoprim-sulfamethoxazole]" assay_result="≤ 2 µg/mL"
molecule="COc1cc(NS(=O)(=O)c2ccc(N)cc2)nc(OC)n1 [sulfadimethoxine]" assay_result="> 256 µg/mL"
molecule="CO/N=C(\\C(=O)N[C@@H]1C(=O)N2C(C(=O)O)=C(CSC(=O)c3ccco3)CS[C@H]12)c1csc(N)n1 [Ceftiofur]" assay_result="> 8 µg/mL"

Qu. Which minimum inhibitory concentration value is on record for CC[C@H]1OC(=O)C[C@@H](O)[C@H](C)[C@@H](O[C@@H]2O[C@H](C)[C@@H](O)[C@H](N(C)C)[C@H]2O)[C@@H](CCN2C[C@H](C)C[C@H](C)C2)C[C@@H](C)C(=O)/C=C/C(C)=C/[C@@H]1CO[C@@H]1O[C@H](C)[C@@H](O)[C@@H](OC)[C@H]1OC [Tilmicosin] ?
Ans. > 16 µg/mL

---

- Test system: Escherichia coli
- PROTOCOL_NOTES: minimum inhibitory concentration (MIC)
- RECORDED_CONDITIONS: isolate (source animal id): 163
EXPERIMENTAL_READOUT: minimum inhibitory concentration

Example compounds with recorded minimum inhibitory concentration:
smiles_str=CC[C@H]1OC(=O)C[C@@H](O)[C@H](C)[C@@H](O[C@@H]2O[C@H](C)[C@@H](O)[C@H](N(C)C)[C@H]2O)[C@@H](CCN2CCCCC2)C[C@@H](C)C(=O)/C=C/C(C)=C/[C@@H]1CN1CCCCC1 assay_result="4 µg/mL"
smiles_str=NC[C@@H]1O[C@H](O[C@H]2[C@@H](O)[C@H](O[C@@H]3[C@@H](O)[C@H](N)C[C@H](N)[C@H]3O[C@H]3O[C@H](CN)[C@@H](O)[C@H](O)[C@H]3N)O[C@@H]2CO)[C@H](N)[C@@H](O)[C@@H]1O assay_result="≤ 4 µg/mL"

Qu. Which minimum inhibitory concentration value is on record for `CS(=O)(=O)c1ccc([C@@H](O)[C@@H](CF)NC(=O)C(Cl)Cl)cc1` ?
Ans. > 8 µg/mL

---

minimum inhibitory concentration reference
- System: Mannheimia haemolytica
- PROTOCOL_NOTES: minimum inhibitory concentration (MIC)
- RECORDED_CONDITIONS: isolate (source animal id): 133

Example molecules with recorded minimum inhibitory concentration:
smiles_str=CN(C)[C@@H]1C(O)=C(C(N)=O)C(=O)[C@@]2(O)C(O)=C3C(=O)c4c(O)cccc4[C@@](C)(O)[C@H]3C[C@@H]12 assay_result="> 8 µg/mL"
smiles_str=CN[C@@H]1[C@H](O)[C@H](NC)[C@H]2O[C@@]3(O)C(=O)C[C@@H](C)O[C@H]3O[C@@H]2[C@H]1O assay_result="32 µg/mL"

Now take the following molecule into account.
Qu. Lab note: need minimum inhibitory concentration with Mannheimia haemolytica for entry `COc1cc(Cc2cnc(N)nc2N)cc(OC)c1OC.Cc1cc(NS(=O)(=O)c2ccc(N)cc2)no1` , please look it up.
Ans. ≤ 2 µg/mL

---

- Test system: Mannheimia haemolytica
- PROTOCOL_NOTES: minimum inhibitory concentration (MIC)
- RECORDED_CONDITIONS: isolate (source animal id): 151
minimum inhibitory concentration reference
Numeric answer only, unit µg/mL assumed.

Example compounds with recorded minimum inhibitory concentration:
compound="CCCN1C[C@H](C)[C@@H](O)[C@](C)(O)[C@@H](CC)OC(=O)[C@H](C)[C@@H](O[C@H]2C[C@@](C)(OC)[C@@H](O)[C@H](C)O2)[C@H](C)[C@@H](O[C@@H]2O[C@H](C)C[C@H](N(C)C)[C@H]2O)[C@](C)(O)C[C@H]1C [Gamithromycin]" assay_system="Mannheimia haemolytica" assay_result=2
compound="CS(=O)(=O)c1ccc([C@@H](O)[C@@H](CF)NC(=O)C(Cl)Cl)cc1 [Florfenicol]" assay_system="Mannheimia haemolytica" assay_result=0.5

Now take the following compound into account.
Qu. Lab note: need minimum inhibitory concentration with Mannheimia haemolytica for entry CN[C@@H]1[C@H](O)[C@H](NC)[C@H]2O[C@@]3(O)C(=O)C[C@@H](C)O[C@H]3O[C@@H]2[C@H]1O [Spectinomycin] , please look it up.
Ans. 32

---

- Tested on: Pasteurella multocida
- PROTOCOL_NOTES: minimum inhibitory concentration (MIC)
- RECORDED_CONDITIONS: isolate (source animal id): 173
EXPERIMENTAL_READOUT: minimum inhibitory concentration

smiles_str=C=C[C@]1(C)C[C@@H](OC(=O)CSCCN(CC)CC)[C@]2(C)[C@H](C)CC[C@]3(CCC(=O)[C@H]32)[C@@H](C)[C@@H]1O experimental_readout="minimum inhibitory concentration" assay_result="32 µg/mL"
smiles_str=CC1(C)S[C@@H]2[C@H](NC(=O)Cc3ccccc3)C(=O)N2[C@H]1C(=O)O experimental_readout="minimum inhibitory concentration" assay_result="0.25 µg/mL"
smiles_str=CCC[C@@H]1C[C@@H](C(=O)N[C@@H]([C@H]2O[C@H](SC)[C@H](O)[C@@H](O)[C@H]2O)[C@H](C)Cl)N(C)C1 experimental_readout="minimum inhibitory concentration" assay_result="> 16 µg/mL"
smiles_str=COc1cc(NS(=O)(=O)c2ccc(N)cc2)nc(OC)n1 experimental_readout="minimum inhibitory concentration" assay_result="> 256 µg/mL"
smiles_str=COc1cc(Cc2cnc(N)nc2N)cc(OC)c1OC.Cc1cc(NS(=O)(=O)c2ccc(N)cc2)no1 experimental_readout="minimum inhibitory concentration" assay_result="≤ 2 µg/mL"

Now take the following molecule into account.
Qu. Which minimum inhibitory concentration value is on record for `CN1C[C@@H]2C[C@H]1CN2c1cc2c(cc1F)c(=O)c(C(=O)O)cn2C1CC1` ?
Ans. > 1 µg/mL

---

- System: Pasteurella multocida
- PROTOCOL_NOTES: minimum inhibitory concentration (MIC)
- RECORDED_CONDITIONS: isolate (source animal id): 233
EXPERIMENTAL_READOUT: minimum inhibitory concentration (µg/mL)
Numeric answer only, unit µg/mL assumed.

compound="CCCN1C[C@H](C)[C@@H](O)[C@](C)(O)[C@@H](CC)OC(=O)[C@H](C)[C@@H](O[C@H]2C[C@@](C)(OC)[C@@H](O)[C@H](C)O2)[C@H](C)[C@@H](O[C@@H]2O[C@H](C)C[C@H](N(C)C)[C@H]2O)[C@](C)(O)C[C@H]1C [Gamithromycin]" unit=µg/mL assay_result=8

Qu. Which minimum inhibitory concentration value is on record for CS(=O)(=O)c1ccc([C@@H](O)[C@@H](CF)NC(=O)C(Cl)Cl)cc1 [Florfenicol] ?
Ans. 0.5

Qu. Which minimum inhibitory concentration value is on record for CCN1CCN(c2cc3c(cc2F)c(=O)c(C(=O)O)cn3C2CC2)CC1 [Enrofloxacin] ?
Ans. 2

Qu. Which minimum inhibitory concentration value is on record for CN[C@@H]1[C@H](O)[C@H](NC)[C@H]2O[C@@]3(O)C(=O)C[C@@H](C)O[C@H]3O[C@@H]2[C@H]1O [Spectinomycin] ?
Ans. 32

---

- System: Histophilus somni
- PROTOCOL_NOTES: minimum inhibitory concentration (MIC)
- RECORDED_CONDITIONS: isolate (source animal id): 212
EXPERIMENTAL_READOUT: minimum inhibitory concentration (µg/mL)
Numeric answer only, unit µg/mL assumed.

smiles_str=CC[C@H]1OC(=O)C[C@@H](O)[C@H](C)[C@@H](O[C@@H]2O[C@H](C)[C@@H](O[C@H]3C[C@@](C)(O)[C@@H](O)[C@H](C)O3)[C@H](N(C)C)[C@H]2O)[C@@H](CC=O)C[C@@H](C)C(=O)/C=C/C(C)=C/[C@@H]1CO[C@@H]1O[C@H](C)[C@@H](O)[C@@H](OC)[C@H]1OC experimental_readout="minimum inhibitory concentration" unit=µg/mL assay_result=4

Now take the following molecule into account.
Qu. Lab note: need minimum inhibitory concentration with Histophilus somni for entry `CN(C)[C@@H]1C(O)=C(C(N)=O)C(=O)[C@@]2(O)C(O)=C3C(=O)c4c(O)cccc4[C@@](C)(O)[C@H]3C[C@@H]12` , please look it up.
Ans. 1
